Tested on: HEK-293T
Experiment: Incucyte cell viability with HEK293T; note: unitless GR value; below 1 slowed growth and below 0 cell loss
Format: toxicity, cell-based
Details: human, 24 h, 10 µM, compound concentration 10 uM, replicate number 2
Peptide text beside a SMILES is read from it. * marks the point of attachment. CH2Cl = ClC*
EXPERIMENTAL ENDPOINT: Growth Rate

{"MOLECULE": "CC(C)[C@H](NC(=O)OCc1ccccc1)C(=O)NC(CC(=O)O)C(=O)CF (stereo partly drawn)", "EXPERIMENTAL ENDPOINT": "Growth Rate", "RESULT": 0.94}
{"MOLECULE": "CC(C)N(C[C@H]1O[C@@H](n2cnc3c(N)ncnc32)[C@H](O)[C@@H]1O)[C@H]1C[C@@H](CCc2nc3cc(C(C)(C)C)ccc3[nH]2)C1", "EXPERIMENTAL ENDPOINT": "Growth Rate", "RESULT": 0.77}
{"MOLECULE": "CC(=O)N[C@@H](Cc1ccc(O)cc1)C(=O)N[C@H](C(=O)N[C@@H](C)C(=O)N[C@@H](CC(=O)O)C(=O)COC(=O)c1c(C)cccc1C)C(C)C", "EXPERIMENTAL ENDPOINT": "Growth Rate", "RESULT": 0.84}
{"MOLECULE": "CNCCN(C)Cc1cn[nH]c1-c1ccc(OC2CC(OCCC3CCOCC3)C2)cc1 (stereo not drawn)", "EXPERIMENTAL ENDPOINT": "Growth Rate", "RESULT": 0.82}
{"MOLECULE": "O=C(C1CC1)N1CC[C@@H](Cc2n[nH]c(=O)n2-c2ccc(-c3ccc4occc4c3)cc2)C1", "EXPERIMENTAL ENDPOINT": "Growth Rate", "RESULT": 1}
{"MOLECULE": "CCCC1O[C@@H]2C[C@H]3[C@@H]4CCC5=CC(=O)C=C[C@]5(C)[C@H]4[C@@H](O)C[C@]3(C)[C@]2(C(=O)CO)O1 (stereo partly drawn) [BUDESONIDE]", "EXPERIMENTAL ENDPOINT": "Growth Rate", "RESULT": 0.82}
{"MOLECULE": "CC#C[C@]1(O)CC[C@H]2[C@@H]3CCC4=CC(=O)CCC4=C3[C@@H](c3ccc(N(C)C)cc3)C[C@@]21C", "EXPERIMENTAL ENDPOINT": "Growth Rate", "RESULT": 1}
{"MOLECULE": "CCn1c(=O)c(C)cn(Cc2nnc(-c3ccc(F)c(OC)c3F)s2)c1=O", "EXPERIMENTAL ENDPOINT": "Growth Rate", "RESULT": 0.9}
{"MOLECULE": "COc1cc(-c2cn(C)c(=O)c3cnccc23)cc(OC)c1CN(C)CC(=O)NCCOCCOCCNc1cccc2c1C(=O)N(C1CCC(=O)NC1=O)C2=O (stereo not drawn)", "EXPERIMENTAL ENDPOINT": "Growth Rate", "RESULT": 0.98}
{"MOLECULE": "Cc1ccc(C(=O)Nc2ccc(S(=O)(=O)[O-])c3cc(S(=O)(=O)[O-])cc(S(=O)(=O)[O-])c23)cc1NC(=O)c1cccc(NC(=O)Nc2cccc(C(=O)Nc3cc(C(=O)Nc4ccc(S(=O)(=O)[O-])c5cc(S(=O)(=O)[O-])cc(S(=O)(=O)[O-])c45)ccc3C)c2)c1.[Na+].[Na+].[Na+].[Na+].[Na+].[Na+] [SURAMIN HEXASODIUM]", "EXPERIMENTAL ENDPOINT": "Growth Rate", "RESULT": 0.83}
{"MOLECULE": "CC(=O)N1CCN([C@H]2CCC[C@@H](NC(=O)c3cc4c(F)ccc(C)c4[nH]3)C2)CC1", "EXPERIMENTAL ENDPOINT": "Growth Rate", "RESULT": 0.94}
{"MOLECULE": "Cc1cc(C)cc(Oc2ccc(CNC(=O)[C@H](C)N)cc2C)c1.Cl", "EXPERIMENTAL ENDPOINT": "Growth Rate", "RESULT": 0.89}
{"MOLECULE": "CC(=O)N[C@@H](CC(C)C)C(=O)N[C@@H](CCC(=O)O)C(=O)N[C@@H](Cc1cnc[nH]1)C(=O)N[C@@H](CC(=O)O)C(=O)CCl.O=C(O)C(F)(F)F (Ac-LEHD-CH2Cl)", "EXPERIMENTAL ENDPOINT": "Growth Rate", "RESULT": 0.95}
{"MOLECULE": "C[C@]12CC[C@@H]3c4ccc(O)cc4C[C@@H](CCCCCCCCC[S+]([O-])CCCC(F)(F)C(F)(F)F)[C@H]3[C@@H]1CC[C@@H]2O (stereo partly drawn)", "EXPERIMENTAL ENDPOINT": "Growth Rate", "RESULT": 0.53}
{"MOLECULE": "CN1CCN(c2nc(-c3ccc(C(=O)NC4(C(=O)NCC#N)CCCCC4)cc3)cs2)CC1", "EXPERIMENTAL ENDPOINT": "Growth Rate", "RESULT": 0.8}
{"MOLECULE": "CCn1c(=O)c(C)cn(Cc2nnc(-c3ccc(F)c(O)c3F)s2)c1=O", "EXPERIMENTAL ENDPOINT": "Growth Rate", "RESULT": 0.97}
{"MOLECULE": "Cc1ncsc1-c1ccc(CNC(=O)[C@@H]2C[C@@H](O)CN2C(=O)[C@@H](NC(=O)COCCOCCOCCNC(=O)C[C@@H]2N=C(c3ccc(Cl)cc3)c3c(sc(C)c3C)-n3c(C)nnc32)C(C)(C)C)cc1", "EXPERIMENTAL ENDPOINT": "Growth Rate", "RESULT": 0.16}
{"MOLECULE": "CC(C)C[C@@H](C=O)NC(=O)[C@@H](NS(=O)(=O)c1ccc(F)cc1)C(C)C", "EXPERIMENTAL ENDPOINT": "Growth Rate", "RESULT": 0.92}
{"MOLECULE": "CCS(=O)(=O)N1CC(CC#N)(n2cc(-c3ncnc4[nH]ccc34)cn2)C1", "EXPERIMENTAL ENDPOINT": "Growth Rate", "RESULT": 1}
{"MOLECULE": "CC(=O)N1CCc2c(c(N3CCCc4cc(-c5cnn(C)c5)c(C(F)F)cc43)nn2C2CCOCC2)C1", "EXPERIMENTAL ENDPOINT": "Growth Rate", "RESULT": 0.51}
{"MOLECULE": "CCN(c1cc(C#CCN2CCOCC2)cc(C(=O)NCc2c(C)cc(C)[nH]c2=O)c1C)[C@H]1CC[C@H](N(C)CCOC)CC1", "EXPERIMENTAL ENDPOINT": "Growth Rate", "RESULT": 0.74}
{"MOLECULE": "CC(=O)O[C@]1(C(C)=O)CC[C@H]2[C@@H]3C=C(Cl)C4=CC(=O)[C@@H]5C[C@@H]5[C@]4(C)[C@H]3CC[C@@]21C [CYPROTERONE ACETATE]", "EXPERIMENTAL ENDPOINT": "Growth Rate", "RESULT": 0.76}
{"MOLECULE": "COc1ccc(N(C(=O)Oc2c(C)cccc2C)c2ccnc(Nc3ccc(N4CCN(C)CC4)cc3)n2)c(OC)c1", "EXPERIMENTAL ENDPOINT": "Growth Rate", "RESULT": 0.97}

###

System: U2OS
Test: Incucyte cell viability with U2OS; note: unitless GR value; below 1 slowed growth and below 0 cell loss
Type: toxicity, cell-based
Conditions: human, 24 h, 10 µM, compound concentration 10 uM, replicate number 2
Examples of compounds with documented Growth Rate follow.

{"COMPOUND": "O=C(NO)c1ccc(CN2CCCc3cc(Cl)ccc32)cc1", "Growth Rate": 0.79}
{"COMPOUND": "O=C(c1ccc2[nH]ccc2c1)N1CCN(S(=O)(=O)c2ccc3[nH]c(=O)oc3c2)CC1", "Growth Rate": 0.82}
{"COMPOUND": "OC1CN=C2c3ccn([C@@H]4O[C@H]([C@H](O)c5ccc(Cl)cc5)[C@@H](O)[C@H]4O)c3N=CN21 (stereo partly drawn)", "Growth Rate": 0.79}

###

Test system: Fibroblast
Assay: Incucyte cell viability with human fibroblast; note: unitless GR value; below 1 slowed growth and below 0 cell loss
Assay type: toxicity, cell-based
Conditions: 24 h, 10 µM, compound concentration 10 uM, replicate number 1
Peptide text beside a SMILES is read from it. * marks the point of attachment. CH2Cl = ClC*
Measured Growth Rate by item
EXPERIMENTAL ENDPOINT: Growth Rate

{"COMPOUND": "CNC(=O)Cn1cc(-c2ccc3c(c2)[C@H](F)C[C@]32NC(=O)N(CC(=O)N(Cc3ccc(F)cc3)[C@@H](C)C(F)(F)F)C2=O)cn1", "MEASURED NUMBER": 0.7}
{"COMPOUND": "Nc1cc(F)ccc1NC(=O)c1ccc(CNC(=O)/C=C/c2cccnc2)cc1", "MEASURED NUMBER": 1}
{"COMPOUND": "O=c1[nH]ccc2cc(F)c(NS(=O)(=O)c3ccc(N4CC[C@@H](O)C4)s3)cc12", "MEASURED NUMBER": 0.99}
{"COMPOUND": "O=C(NO)c1cccc(C(=O)NCCc2ccccc2)c1", "MEASURED NUMBER": 1}
{"COMPOUND": "CC[C@H](C)[C@H](NC(C)=O)C(=O)N[C@@H](CCC(=O)O)C(=O)N[C@H](C(=O)N[C@H](C=O)CC(=O)O)[C@@H](C)O.O=C(O)C(F)(F)F (Ac-IETD-aldehyde)", "MEASURED NUMBER": 0.25}
{"COMPOUND": "CNC[C@@H](O)COc1ccc(Cl)c(-c2nc(-c3c(C)noc3C)c(C)c(N3CC4(CCN(C(=O)OC)CC4)C3)n2)c1", "MEASURED NUMBER": 0.24}
{"COMPOUND": "CCCN1CCN(c2ccc(C(=O)NC3(C(=O)NCC#N)CCCCC3)cc2)CC1", "MEASURED NUMBER": 1}
{"COMPOUND": "CC(=O)N[C@@H](CC(C)C)C(=O)N[C@@H](CCC(=O)O)C(=O)N[C@@H](Cc1cnc[nH]1)C(=O)N[C@@H](CC(=O)O)C(=O)CCl.O=C(O)C(F)(F)F (Ac-LEHD-CH2Cl)", "MEASURED NUMBER": 0.44}
